- EXPERIMENTAL_PROTOCOL: Solvent solubility screen
- Type: physicochemical
- CONDITION_DESCRIPTION: isopropyl acetate, 40 °C, organic solvent or mixture, thermodynamic from solid; read-out: Approximate Solubility
METRIC_NAME: solubility

// solubility value for `COC(=O)c1ccc2c(c1)NC(=O)/C2=C(\Nc1ccc(N(C)C(=O)CN2CCN(C)CC2)cc1)c1ccccc1` : < 10000 µg/mL

====

- EXPERIMENTAL_PROTOCOL: Apparent solubility of nintedanib HBr laboratory scale batches
- Type: physicochemical
Here, each record is paired with measured Apparent Solubility data.
Give a bare numeral; the unit µg/mL is implied.

Worked examples follow.
| COMPOUND | Apparent Solubility, µg/mL |
| --- | --- |
| Br.COC(=O)c1ccc2c(c1)NC(=O)C2=C(Nc1ccc(N(C)C(=O)CN2CCN(C)CC2)cc1)c1ccccc1 [AP018] | 2040 |
| Br.COC(=O)c1ccc2c(c1)NC(=O)C2=C(Nc1ccc(N(C)C(=O)CN2CCN(C)CC2)cc1)c1ccccc1 [AP036] | 970 |

// Apparent Solubility value for Br.COC(=O)c1ccc2c(c1)NC(=O)C2=C(Nc1ccc(N(C)C(=O)CN2CCN(C)CC2)cc1)c1ccccc1 [AP177d] : 2050

====

- EXPERIMENTAL_PROTOCOL: Inhaled pharmacokinetics of nintedanib salt forms (intratracheal)
- Assay type: in vivo, C57BL/6 mice
- CONDITION_DESCRIPTION: female, mouse, inhaled or intranasal; plasma; 1.0 mg/kg IT (base equivalent); C57BL/6 mice; read-out: Cmax
METRIC_NAME: Cmax (ng/mL)
Give a bare numeral; the unit ng/mL is implied.

// Cmax value for COC(=O)c1ccc2c(c1)NC(=O)/C2=C(\Nc1ccc(N(C)C(=O)CN2CCN(C)CC2)cc1)c1ccccc1 [Nintedanib esylate] : 400

====

- EXPERIMENTAL_PROTOCOL: pH-solubility of nintedanib HBr Pattern 4 and Pattern X
- Type: physicochemical
- CONDITION_DESCRIPTION: pH 5.1; distilled water, over 48 hours, UV/vis 390 nm; unit assumed
METRIC_NAME: solubility (µg/mL)
Give a bare numeral; the unit µg/mL is implied.

// solubility value for Br.COC(=O)c1ccc2c(c1)NC(=O)/C2=C(\Nc1ccc(N(C)C(=O)CN2CCN(C)CC2)cc1)c1ccccc1 [Nintedanib HBr Pattern X, Nintedanib hydrobromide, XRPD Pattern X] : 1400

====

- EXPERIMENTAL_PROTOCOL: pH-solubility of nintedanib HBr Pattern 4 and Pattern X
- Type: physicochemical
- CONDITION_DESCRIPTION: pH 3.1; distilled water, over 48 hours, UV/vis 390 nm; unit assumed
METRIC_NAME: solubility
Remember to follow the number with its unit.

| MOLECULE | solubility |
| --- | --- |
| Br.COC(=O)c1ccc2c(c1)NC(=O)/C2=C(\Nc1ccc(N(C)C(=O)CN2CCN(C)CC2)cc1)c1ccccc1 [Nintedanib HBr Pattern X, Nintedanib hydrobromide, XRPD Pattern X] | 1.86 mg/mL |

Turning now to a further record.
// solubility value for Br.COC(=O)c1ccc2c(c1)NC(=O)/C2=C(\Nc1ccc(N(C)C(=O)CN2CCN(C)CC2)cc1)c1ccccc1 [Nintedanib HBr Pattern 4, Nintedanib hydrobromide, XRPD Pattern 4] : 2.01 mg/mL

====

- EXPERIMENTAL_PROTOCOL: Inhaled pharmacokinetics of fixed combination nintedanib esylate and pirfenidone
- Format: in vivo, C57BL/6 mice
- CONDITION_DESCRIPTION: female, C57BL/6, mouse, inhaled or intranasal, 10.0 mg/kg each IT, Plasma
METRIC_NAME: Cmax (ng/mL)
Give a bare numeral; the unit ng/mL is implied.

| COMPOUND | Cmax, ng/mL |
| --- | --- |
| Cc1ccc(=O)n(-c2ccccc2)c1 [Pirfenidone] | 7900 |

Turning now to a further record.
// Cmax value for COC(=O)c1ccc2c(c1)NC(=O)/C2=C(\Nc1ccc(N(C)C(=O)CN2CCN(C)CC2)cc1)c1ccccc1 [Nintedanib esylate] : 2800

====

- EXPERIMENTAL_PROTOCOL: Inhaled pharmacokinetics of fixed combination nintedanib esylate and pirfenidone
- Type: in vivo, C57BL/6 mice
- CONDITION_DESCRIPTION: female, C57BL/6, mouse, inhaled or intranasal, 10.0 mg/kg each IT, Plasma, read-out: Elimination half-life (alpha-phase)
METRIC_NAME: half-life (min)
Give a bare numeral; the unit min is implied.

| COMPOUND | UNIT_ANNOTATION | half-life |
| --- | --- | --- |
| COC(=O)c1ccc2c(c1)NC(=O)/C2=C(\Nc1ccc(N(C)C(=O)CN2CCN(C)CC2)cc1)c1ccccc1 [Nintedanib esylate] | min | 7.7 |

// half-life value for `Cc1ccc(=O)n(-c2ccccc2)c1` : 8.9

====

- EXPERIMENTAL_PROTOCOL: Inhaled pharmacokinetics of nintedanib salt forms (intratracheal)
- Type: in vivo, C57BL/6 mice
- CONDITION_DESCRIPTION: female, mouse, inhaled or intranasal; plasma; 1.0 mg/kg IT; C57BL/6 mice
METRIC_NAME: AUC(0-t)
Remember to follow the number with its unit.

// AUC(0-t) value for COC(=O)c1ccc2c(c1)NC(=O)/C2=C(\Nc1ccc(N(C)C(=O)CN2CCN(C)CC2)cc1)c1ccccc1 [Nintedanib esylate] : 0.2 µg·h/mL

====

- EXPERIMENTAL_PROTOCOL: pH-solubility of nintedanib HBr Pattern 4 and Pattern X
- Type: physicochemical
- CONDITION_DESCRIPTION: pH 4.7; distilled water, over 48 hours, UV/vis 390 nm; unit assumed
METRIC_NAME: solubility

// solubility value for Br.COC(=O)c1ccc2c(c1)NC(=O)/C2=C(\Nc1ccc(N(C)C(=O)CN2CCN(C)CC2)cc1)c1ccccc1 [Nintedanib HBr Pattern 4, Nintedanib hydrobromide, XRPD Pattern 4] : 1380 µg/mL

====

- EXPERIMENTAL_PROTOCOL: Solvent solubility screen
- Assay type: physicochemical
- CONDITION_DESCRIPTION: 40 °C, aqueous with cosolvent or surfactant or cyclodextrin, thermodynamic from solid; 40% Methanol: 60% Water (% v/v); read-out: Approximate Solubility
METRIC_NAME: solubility

// solubility value for COC(=O)c1ccc2c(c1)NC(=O)/C2=C(\Nc1ccc(N(C)C(=O)CN2CCN(C)CC2)cc1)c1ccccc1 [Nintedanib] : < 10000 µg/mL

====

- EXPERIMENTAL_PROTOCOL: Solvent solubility screen
- Assay type: physicochemical
- CONDITION_DESCRIPTION: acetone, 40 °C, organic solvent or mixture, thermodynamic from solid; read-out: Approximate Solubility
- Procedure: Between each addition, the mixture was checked for dissolution and where no dissolution was apparent, the mixture was heated to ca. 40° C. and checked again. Samples where the material dissolved, were left to evaporate. Any solids produced from evaporation samples were analyzed by XRPD in order to assess the polymorphic form. The solvent systems used during the solvent solubility screen, together with the corresponding ICH Class, are detailed in Table 4.
METRIC_NAME: solubility

// solubility value for COC(=O)c1ccc2c(c1)NC(=O)/C2=C(\Nc1ccc(N(C)C(=O)CN2CCN(C)CC2)cc1)c1ccccc1 [Nintedanib] : < 10000 µg/mL

====

- EXPERIMENTAL_PROTOCOL: Plasma and lung pharmacokinetics of nintedanib esylate, oral vs intratracheal aerosol
- Assay type: in vivo, C57BL/6 mice
- CONDITION_DESCRIPTION: female, C57BL/6, mouse; 100.0 mg/kg PO; Lung (whole lung homogenate)
METRIC_NAME: Cmax
Remember to follow the number with its unit.

// Cmax value for COC(=O)c1ccc2c(c1)NC(=O)/C2=C(\Nc1ccc(N(C)C(=O)CN2CCN(C)CC2)cc1)c1ccccc1 [Nintedanib esylate] : 12100 ng/g

====

- EXPERIMENTAL_PROTOCOL: Solvent solubility screen
- Type: physicochemical
- CONDITION_DESCRIPTION: ethyl acetate, 40 °C, organic solvent or mixture, thermodynamic from solid; read-out: Approximate Solubility
- Procedure: Between each addition, the mixture was checked for dissolution and where no dissolution was apparent, the mixture was heated to ca. 40° C. and checked again. Samples where the material dissolved, were left to evaporate. Any solids produced from evaporation samples were analyzed by XRPD in order to assess the polymorphic form. The solvent systems used during the solvent solubility screen, together with the corresponding ICH Class, are detailed in Table 4.
METRIC_NAME: solubility

// solubility value for `COC(=O)c1ccc2c(c1)NC(=O)/C2=C(\Nc1ccc(N(C)C(=O)CN2CCN(C)CC2)cc1)c1ccccc1` : < 10000 µg/mL

====

- EXPERIMENTAL_PROTOCOL: Solvent solubility screen
- Type: physicochemical
- CONDITION_DESCRIPTION: dichloromethane, organic solvent or mixture, thermodynamic from solid; read-out: Approximate Solubility
METRIC_NAME: solubility (mg/mL)
Give a bare numeral; the unit mg/mL is implied.

// solubility value for COC(=O)c1ccc2c(c1)NC(=O)/C2=C(\Nc1ccc(N(C)C(=O)CN2CCN(C)CC2)cc1)c1ccccc1 [Nintedanib] : 17
